Listed compounds paired with reported INHIBITION
- Tested on: Plasmodium falciparum
- Assay Name: Screen against P. falciparum Asexual Blood Stage (ABS), at 5uM
- Format: functional, Dd2
- Condition Set: tested at 5 uM
In all, about 65,000 compounds went through this assay and about 2,100 (3.2%) showed an effect of 50% or more. The median lay at about -52%. Many of the other results were omitted from the sample, so strong results are more common in it than they were.
Value Kind: INHIBITION (%)

compound="CNC(=O)c1cccc(CNC(C)c2cc(Cl)ccc2OC)c1 (stereo not drawn)" value_kind=INHIBITION unit_label=% value=-5.94
compound="CC(C)CNc1cc(-c2c[nH]nc2C2CCN(C(=O)C3CC3)C2)ccn1 (stereo not drawn)" value_kind=INHIBITION unit_label=% value=84.6
compound=O=C(N[C@H]1CN(c2nc(CO)cs2)C[C@@H]1C1CC1)C1CCCCC1 value_kind=INHIBITION unit_label=% value=-26.4
compound=Cn1nc(C(=O)N2CCSCC2)cc1NC(=O)c1ccco1 value_kind=INHIBITION unit_label=% value=-104
compound=Cc1ccc(CN2CCn3cc(CN4CCN(C)CC4)nc3C2)cc1 value_kind=INHIBITION unit_label=% value=-112
compound="Nc1cc(-c2c[nH]nc2C2CCN(C(=O)C3CCCC3)C2)ccn1 (stereo not drawn)" value_kind=INHIBITION unit_label=% value=-27.3
compound="CC(C(=O)N1CCN(Cc2ccc(C#N)cc2)CC1)n1ccnc1 (stereo not drawn)" value_kind=INHIBITION unit_label=% value=-162
compound="CNC(=O)c1cccc(CNC(C)c2ccc(F)cc2N(C)C)c1 (stereo not drawn)" value_kind=INHIBITION unit_label=% value=-107
compound=CCc1noc(CN2CCN(CCO)CC2)n1 value_kind=INHIBITION unit_label=% value=-176
compound="CN(Cc1ccccc1)CC(O)Cn1cnc2sccc2c1=O (stereo not drawn)" value_kind=INHIBITION unit_label=% value=62.1
compound="CCn1nnc2c1C(COCC(=O)N(C)C)CN(Cc1ccoc1)C2 (stereo not drawn)" value_kind=INHIBITION unit_label=% value=-97.7
compound=O=C(c1ccco1)N1CCO[C@@H]2CN(CC3CC3)CC[C@@H]2C1 value_kind=INHIBITION unit_label=% value=-65.2
compound=CCc1cnc(N2C[C@@H]3C[C@H](C(=O)NCC(C)C)[C@H](C2)O3)nc1 value_kind=INHIBITION unit_label=% value=-47.5
compound="CC(C(=O)N1CCCN(Cc2ccc(C#N)cc2)CC1)n1ccnc1 (stereo not drawn)" value_kind=INHIBITION unit_label=% value=-20.3
compound=CN(C)CCn1ccnc1C1CCN(c2cc(N)nc(N)n2)CC1 value_kind=INHIBITION unit_label=% value=-90.3
compound=CCCc1noc(CN2CCN(CCO)CC2)n1 value_kind=INHIBITION unit_label=% value=50.5
compound="Cc1cnn(CC(C)NCc2ccc(OCC(N)=O)cc2)c1 (stereo not drawn)" value_kind=INHIBITION unit_label=% value=-49.9
compound="CNc1nc(C2CCCN2C(C)=O)nc2c1CN(C1CCCC1)CC2 (stereo not drawn)" value_kind=INHIBITION unit_label=% value=-71.7
compound="CN(Cc1ccccc1)CC(O)Cn1cnc2ccccc2c1=O (stereo not drawn)" value_kind=INHIBITION unit_label=% value=-2.56
compound=O=C1[C@@H]2CC[C@@H](CN(c3ncnc4ccsc34)C2)N1CC1CC1 value_kind=INHIBITION unit_label=% value=-85.4
compound="CC(=O)N1CCC(c2n[nH]cc2-c2ccnc(N)c2)C1 (stereo not drawn)" value_kind=INHIBITION unit_label=% value=-13.8
compound=CN1[C@@H](C(=O)NCC2CC2)C[C@H]2CN(Cc3cccc(C#N)c3)C[C@H]21 value_kind=INHIBITION unit_label=% value=27.2
compound="CN(Cc1ccccc1)CC(O)Cn1cnc2ccsc2c1=O (stereo not drawn)" value_kind=INHIBITION unit_label=% value=19
